The reported numbers originate from the supplement of paper PMC10567573.

Assay: protein stability index of a GFP-peptide fusion (GPS, HEK-293T) (PSI 1-6); higher = more stable;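 further: 24-mer peptide tiles fused after GFP, lentivirally expressed, FACS-sorted into six equal bins by GFP/DsRed ratio, decoded by Illumina sequencing, PSI is the read-weighted mean bin number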
Conditions: treatment: DMSO; c terminus: a fixed tail appended
Label 0 if protein stability index falls below 3; label 1 in every other case.

Observe how each entry below is paired with its result.
[[record]]
record_sequence = "TLVNFHLKRSIPQVSPVRRAPSRR [CPN1]"
answer_label = 0

[[record]]
record_sequence = "HRRRTICGTPNYLSPEVLNKQGHG [PLK2]"
answer_label = 1

[[record]]
record_sequence = "GAPSVGQPGAGFGMPPAGTGMPMM [SNAP91]"
answer_label = 1

[[record]]
record_sequence = "TPATPEDPAPLWGPPPAQGSPGDG [EMID1]"
answer_label = 1

[[record]]
record_sequence = "QQLYYTEADYEDDSKIAFLMQLQD [IQUB]"
answer_label = 1


Query: Confirm if protein stability index reported for the sequence GEAAGSSLIGHLQTLSPDMQGAYC [DUSP5] is 3 or above.
Response: 1

Query: Confirm if protein stability index reported for the sequence QIKDFKEKIQQDADSVITVGRGEV [ACBD3] is 3 or above.
Response: 1

Query: Confirm if protein stability index reported for the sequence VHHLPLSTEKVVQETVLVEERRVV [EPB41L3] is 3 or above.
Response: 1
